meta.source: ChEMBL document CHEMBL2407036

ASSAY_SYSTEM: P2X purinoceptor 7 (Rattus norvegicus)
Sequence (Q64663 whole entry): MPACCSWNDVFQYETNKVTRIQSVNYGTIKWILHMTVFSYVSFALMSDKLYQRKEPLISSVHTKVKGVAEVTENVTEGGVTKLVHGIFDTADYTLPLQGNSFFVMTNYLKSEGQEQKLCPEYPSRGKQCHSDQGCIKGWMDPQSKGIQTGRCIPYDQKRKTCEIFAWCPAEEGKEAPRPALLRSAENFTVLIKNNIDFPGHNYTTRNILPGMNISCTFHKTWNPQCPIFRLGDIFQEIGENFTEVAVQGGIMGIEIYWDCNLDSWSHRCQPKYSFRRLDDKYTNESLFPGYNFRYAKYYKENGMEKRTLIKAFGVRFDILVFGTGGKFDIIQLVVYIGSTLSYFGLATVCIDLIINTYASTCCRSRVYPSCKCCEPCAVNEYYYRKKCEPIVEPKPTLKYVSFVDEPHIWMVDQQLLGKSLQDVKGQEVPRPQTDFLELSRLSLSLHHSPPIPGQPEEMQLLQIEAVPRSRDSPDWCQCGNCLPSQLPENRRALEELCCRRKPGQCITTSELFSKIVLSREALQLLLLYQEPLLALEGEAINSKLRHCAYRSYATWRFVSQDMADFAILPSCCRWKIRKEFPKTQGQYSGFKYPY
ASSAY_SUMMARY: Antagonist activity at P2X7 in Sprague-Dawley rat synaptosome assessed as inhibition of BzATP-induced [3H]D-aspartate efflux compound preincubated for 8 mins by liquid scintillation counting
ASSAY_ENDPOINT: pIC50
Value format note: pIC50 is -log10 of concentration (mol/L); just state the number.

get_value(item= O=C(NC1(C(=O)NC2CC2)C2CC3CC(C2)CC1C3)c1ccccc1 (stereo unspecified) , readout=pIC50) returns 5.11
